- Measured on: human CB2R (Homo sapiens)
- Construct: host or cells: CHO cells
- Sequence (P34972 whole entry): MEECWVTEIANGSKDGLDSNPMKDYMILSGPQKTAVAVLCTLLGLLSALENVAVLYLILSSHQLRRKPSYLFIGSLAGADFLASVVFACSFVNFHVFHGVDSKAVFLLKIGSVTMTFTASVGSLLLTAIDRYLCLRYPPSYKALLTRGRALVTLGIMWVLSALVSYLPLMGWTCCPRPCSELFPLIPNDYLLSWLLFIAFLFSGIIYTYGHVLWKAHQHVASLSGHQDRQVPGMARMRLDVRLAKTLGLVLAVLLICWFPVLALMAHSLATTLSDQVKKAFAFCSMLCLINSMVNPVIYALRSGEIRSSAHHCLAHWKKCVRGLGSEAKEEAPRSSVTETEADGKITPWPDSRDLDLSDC
- Assay text: CB2R mediated modulation of cAMP synthesis
- Assay type: cell-based
- Condition label: Table VI, formula IB compounds; CHO cells expressing human CB2R, inhibition of forskolin-stimulated cAMP synthesis; read-out: CB2 EC50
pEC50: −log10 of the molar value.

- Compound: "O=C(Nc1nc(-c2ccccc2)ns1)C(CCO)S(=O)(=O)c1ccc(Cl)cc1 (stereo not shown)"
  Measured on: "human CB2R (Homo sapiens)"
  pEC50: 6.26
